Values were extracted from the supplement of paper PMC5998384.

System: HeLa Kyoto;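 note: HeLa Kyoto cells synchronized by double thymidine or nocodazole block, proteins quantified by TMT10plex mass spectrometry, three independent biological replicates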
Assay: melting temperature (median over replicates), in situ; higher = more thermally stable
Details: cell cycle stage: mitosis
# reported melting temperature; entries follow
measured.parameter: melting temperature (°C)

item.sequence	study.system	reported
MTCWLRGVTATFGRPAEWPGYLSHLCGRSAAMDLGPMRKSYRGDREAFEETHLTSLDPVKQFAAWFEEAVQCPDIGEANAMCLATCTRDGKPSARMLLLKGFGKDGFRFFTNFESRKGKELDSNPFASLVFYWEPLNRQVRVEGPVKKLPEEEAECYFHSRPKSSQIGAVVSHQSSVIPDREYLRKKNEELEQLYQDQEVPKPKSWGGYVLYPQVMEFWQGQTNRLHDRIVFRRGLPTGDSPLGPMTHRGEEDWLYERLAP [PNPO]	HeLa Kyoto	54.3
MAPHDPGSLTTLVPWAAALLLALGVERALALPEICTQCPGSVQNLSKVAFYCKTTRELMLHARCCLNQKGTILGLDLQNCSLEDPGPNFHQAHTTVIIDLQANPLKGDLANTFRGFTQLQTLILPQHVNCPGGINAWNTITSYIDNQICQGQKNLCNNTGDPEMCPENGSCVPDGPGLLQCVCADGFHGYKCMRQGSFSLLMFFGILGATTLSVSILLWATQRRKAKTS [ATRAID]	HeLa Kyoto	54.8
MISRHLQNNLMSVDPASSQAMELSDVTLIEGVGNEVMVVAGVVVLILALVLAWLSTYVADSGSNQLLGAIVSAGDTSVLHLGHVDHLVAGQGNPEPTELPHPSEGNDEKAEEAGEGRGDSTGEAGAGGGVEPSLEHLLDIQGLPKRQAGAGSSSPEAPLRSEDSTCLPPSPGLITVRLKFLNDTEELAVARPEDTVGALKSKYFPGQESQMKLIYQGRLLQDPARTLRSLNITDNCVIHCHRSPPGSAVPGPSASLAPSATEPPSLGVNVGSLMVPVFVVLLGVVWYFRINYRQFFTAPATVSLVGVTVFFSFLVFGMYGR [TMUB2]	HeLa Kyoto	54
MICTFLRAVQYTEKLHRSSAKRLLLPYIVLNKACLKTEPSLRCGLQYQKKTLRPRCILGVTQKTIWTQGPSPRKAKEDGSKQVSVHRSQRGGTAVPTSQKVKEAGRDFTYLIVVLFGISITGGLFYTIFKELFSSSSPSKIYGRALEKCRSHPEVIGVFGESVKGYGEVTRRGRRQHVRFTEYVKDGLKHTCVKFYIEGSEPGKQGTVYAQVKENPGSGEYDFRYIFVEIESYPRRTIIIEDNRSQDD [TIMM21]	HeLa Kyoto	51.6
MRCCHICKLPGRVMGIRVLRLSLVVILVLLLVAGALTALLPSVKEDKMLMLRREIKSQGKSTMDSFTLIMQTYNRTDLLLKLLNHYQAVPNLHKVIVVWNNIGEKAPDELWNSLGPHPIPVIFKQQTANRMRNRLQVFPELETNAVLMVDDDTLISTPDLVFAFSVWQQFPDQIVGFVPRKHVSTSSGIYSYGSFEMQAPGSGNGDQYSMVLIGASFFNSKYLELFQRQPAAVHALIDDTQNCDDIAMNFIIAKHIGKTSGIFVKPVNMDNLEKETNSGYSGMWHRAEHALQRSYCINKLVNIYDSMPLRYSNIMISQFGFPYANYKRKI [EXTL2]	HeLa Kyoto	58.5
MRLSWFRVLTVLSICLSAVATATGAEGKRKLQIGVKKRVDHCPIKSRKGDVLHMHYTGKLEDGTEFDSSLPQNQPFVFSLGTGQVIKGWDQGLLGMCEGEKRKLVIPSELGYGERGAPPKIPGGATLVFEVELLKIERRTEL [FKBP2]	HeLa Kyoto	54.8
MAARRALHFVFKVGNRFQTARFYRDVLGMKVESCSVARLECSGAISAHCSDYTRITEDSFSKPYDGKWSKTMVGFGPEDDHFVAELTYNYGVGDYKLGNDFMGITLASSQAVSNARKLEWPLTEVAEGVFETEAPGGYKFYLQNRSLPQSDPVLKVTLAVSDLQKSLNYWCNLLGMKIYEKDEEKQRALLGYADNQCKLELQGVKGGVDHAAAFGRIAFSCPQKELPDLEDLMKRENQKILTPLVSLDTPGKATVQVVILADPDGHEICFVGDEAFRELSKMDPEGSKLLDDAMAADKSDEWFAKHNKPKASG [GLOD4]	HeLa Kyoto	50.9
MLSALARPASAALRRSFSTSAQNNAKVAVLGASGGIGQPLSLLLKNSPLVSRLTLYDIAHTPGVAADLSHIETKAAVKGYLGPEQLPDCLKGCDVVVIPAGVPRKPGMTRDDLFNTNATIVATLTAACAQHCPEAMICVIANPVNSTIPITAEVFKKHGVYNPNKIFGVTTLDIVRANTFVAELKGLDPARVNVPVIGGHAGKTIIPLISQCTPKVDFPQDQLTALTGRIQEAGTEVVKAKAGAGSATLSMAYAGARFVFSLVDAMNGKEGVVECSFVKSQETECTYFSTPLLLGKKGIEKNLGIGKVSSFEEKMISDAIPELKASIKKGEDFVKTLK [MDH2]	HeLa Kyoto	57.2
MEKIEEQFANLHIVKCSLGTKEPTYLLGIDTSKTVQAGKENLVAVLCSNGSIRIYDKERLNVLREFSGYPGLLNGVRFANSCDSVYSACTDGTVKCWDARVAREKPVQLFKGYPSNIFISFDINCNDHIICAGTEKVDDDALLVFWDARMNSQNLSTTKDSLGAYSETHSDDVTQVRFHPSNPNMVVSGSSDGLVNVFDINIDNEEDALVTTCNSISSVSCIGWSGKGYKQIYCMTHDEGFYWWDLNHLDTDEPVTRLNIQDVREVVNMKEDALDYLIGGLYHEKTDTLHVIGGTNKGRIHLMNCSMSGLTHVTSLQGGHAATVRSFCWNVQDDSLLTGGEDAQLLLWKPGAIEKTFTKKESMKIASSVHQRVRVHSNDSYKRRKKQ [WDR89]	HeLa Kyoto	55.9
MVHCSCVLFRKYGNFIDKLRLFTRGGSGGMGYPRLGGEGGKGGDVWVVAQNRMTLKQLKDRYPRKRFVAGVGANSKISALKGSKGKDCEIPVPVGISVTDENGKIIGELNKENDRILVAQGGLGGKLLTNFLPLKGQKRIIHLDLKLIADVGLVGFPNAGKSSLLSCVSHAKPAIADYAFTTLKPELGKIMYSDFKQISVADLPGLIEGAHMNKGMGHKFLKHIERTRQLLFVVDISGFQLSSHTQYRTAFETIILLTKELELYKEELQTKPALLAVNKMDLPDAQDKFHELMSQLQNPKDFLHLFEKNMIPERTVEFQHIIPISAVTGEGIEELKNCIRKSLDEQANQENDALHKKQLLNLWISDTMSSTEPPSKHAVTTSKMDII [GTPBP10]	HeLa Kyoto	50.8
